Target: VEGFR-2 (Homo sapiens)
Sequence (P35968 20-1356, species assumed): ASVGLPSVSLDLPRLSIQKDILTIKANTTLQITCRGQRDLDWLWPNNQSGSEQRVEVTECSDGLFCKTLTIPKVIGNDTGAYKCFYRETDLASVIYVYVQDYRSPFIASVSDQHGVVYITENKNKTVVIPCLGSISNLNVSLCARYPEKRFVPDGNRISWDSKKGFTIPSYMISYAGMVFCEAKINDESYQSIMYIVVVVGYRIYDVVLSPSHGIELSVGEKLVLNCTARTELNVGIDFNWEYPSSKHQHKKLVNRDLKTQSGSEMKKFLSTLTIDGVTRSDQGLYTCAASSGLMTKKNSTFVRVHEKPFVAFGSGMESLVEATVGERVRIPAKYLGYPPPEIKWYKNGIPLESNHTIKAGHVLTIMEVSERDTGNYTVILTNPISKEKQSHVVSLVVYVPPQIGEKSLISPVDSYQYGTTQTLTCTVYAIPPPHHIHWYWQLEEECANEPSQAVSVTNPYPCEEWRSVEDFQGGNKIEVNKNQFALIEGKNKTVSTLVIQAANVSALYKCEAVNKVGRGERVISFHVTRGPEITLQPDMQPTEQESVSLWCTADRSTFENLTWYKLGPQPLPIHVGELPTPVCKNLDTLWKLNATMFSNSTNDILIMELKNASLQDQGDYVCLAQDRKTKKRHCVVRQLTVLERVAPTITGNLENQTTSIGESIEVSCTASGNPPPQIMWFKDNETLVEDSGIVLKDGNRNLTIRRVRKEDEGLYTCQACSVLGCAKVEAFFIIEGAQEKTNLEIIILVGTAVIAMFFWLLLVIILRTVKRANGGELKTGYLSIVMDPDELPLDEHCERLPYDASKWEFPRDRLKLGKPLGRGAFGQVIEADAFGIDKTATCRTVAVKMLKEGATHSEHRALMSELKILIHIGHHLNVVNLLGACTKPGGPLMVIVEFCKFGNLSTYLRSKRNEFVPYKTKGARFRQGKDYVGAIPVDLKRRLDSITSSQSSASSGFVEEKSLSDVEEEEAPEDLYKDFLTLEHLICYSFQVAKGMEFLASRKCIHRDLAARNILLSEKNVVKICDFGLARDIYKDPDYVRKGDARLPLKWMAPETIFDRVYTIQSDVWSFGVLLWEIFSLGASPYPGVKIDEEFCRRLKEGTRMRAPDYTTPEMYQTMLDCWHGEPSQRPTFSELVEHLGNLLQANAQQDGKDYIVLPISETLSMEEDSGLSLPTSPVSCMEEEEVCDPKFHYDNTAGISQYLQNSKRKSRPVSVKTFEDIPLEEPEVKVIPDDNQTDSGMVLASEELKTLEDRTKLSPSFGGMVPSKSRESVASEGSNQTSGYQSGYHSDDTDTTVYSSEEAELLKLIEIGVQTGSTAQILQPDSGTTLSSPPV
Test: Kinase inhibition assay (ELISA)
Type: biochemical
Conditions: 1.5 µM ATP
Assay Metric: IC50

Molecule: OCCN1CCC(c2ccnc(Nc3ncc(-c4ccc(F)cc4)s3)c2)CC1
Reported: < 10 nM

Molecule: CC(C)(C)Cc1cnc(Nc2cccc(C3CCN(C(=O)C(C)(C)N)CC3)n2)s1
Reported: > 100 nM

Molecule: OCCN1CCC(c2ccnc(Nc3ncc(-c4ccccc4F)s3)c2)CC1
Reported: > 10 nM

Molecule: OCCN1CCC(c2cncc(Nc3ncc(-c4ccccc4)s3)n2)CC1
Reported: > 100 nM

Molecule: Fc1ccc(-c2cnc(Nc3cccc(CC4CCCNCC4)n3)s2)cc1 (centres unmarked)
Reported: > 100 nM

Molecule: OCCN1CCC(c2ccnc(Nc3ncc(-c4cccc(F)c4)s3)c2)CC1
Reported: > 10 nM

Molecule: CC(=O)N1CCC(Cc2ccnc(Nc3ncc(-c4ccc(F)cc4)s3)c2)CC1
Reported: > 10 nM

Molecule: Fc1ccc(-c2cnc(Nc3cccc(CC4COC5(CCNCC5)C4)n3)s2)cc1 (centres unmarked)
Reported: > 10 nM
